Listed here: items and their measured cytotoxicity at 70.5 h.
# assay_explanation: Human HepG2 cell viability assay in 384 well format
# Format: toxicity, cell-based
# Set-up: dose 125 nL, time 70.5 hour; concentration not given beside the values
# details: HepG2 cells, read-out: Inhibition
measure_name: cytotoxicity at 70.5 h (%)

>>> reading("Cc1nnc(N2C[C@H](Oc3ccccn3)[C@H]3OCCC[C@H]32)s1")
8.06
>>> reading("CCCc1nc(C)cc(N2CCC3(CCC(=O)N(CCCO)C3)CC2)n1")
-7.61
>>> reading("CC(C)CCN(C(=O)CCn1cc(S(N)(=O)=O)cn1)C1CC1")
-1.68
>>> reading("CS(=O)(=O)N1CCOCC2(CCN(C(=O)c3ccncc3)CC2)C1")
-6.51
>>> reading("Cc1ccc(C(O)CNC(=O)NCc2nc(C)cs2)cc1 (stereo unspecified)")
-2.07
>>> reading("Cn1cc(C(=O)N2CC[C@@H]3[C@@H]2CCN3c2ncc(F)cn2)cn1")
-5.7
>>> reading("CC[C@H]1CN(S(=O)(=O)c2ccccc2)CC[C@H]1CC(=O)O")
5.41
>>> reading("COCc1cccc(NCc2cccnc2)c1")
-10.4
>>> reading("CC(=O)NCC(=O)N(CCc1ccccc1)C1CCOC1 (stereo unspecified)")
-9.4
>>> reading("CN(Cc1ccc(Br)s1)Cn1nc(-c2ccccc2)oc1=O")
-9.53
>>> reading("CC(=O)N1CCC2(C1)C(=O)N(CC1CC1)c1ccccc12 (stereo unspecified)")
-8.89

* * *

# assay_explanation: Human HepG2 cell viability assay in 384 well format
# Type: toxicity, cell-based
# Parameters: dose 125 nL, time 70.5 hour; concentration not given beside the values
# details: HepG2 cells, read-out: Inhibition
measure_name: cytotoxicity at 70.5 h (%)

>>> reading("Cc1occc1C(=O)N1CCCC2(CCN(c3ccccc3)C2=O)C1 (centres undefined)")
12.9
>>> reading("Cc1ccccc1CN(CCN(C)C)Cc1ccc(S(C)(=O)=O)cc1")
4.23
>>> reading("c1cnn(CC2CN(CCc3ccncc3)CCO2)c1 (centres undefined)")
-4.36
>>> reading("COCC(=O)N1CCC2(CC1)CC(OC)c1ccc(F)cc12 (centres undefined)")
-0.706
>>> reading("c1ccc(CN2C[C@@H]3CCCO[C@@H]3[C@H](Nc3ccccn3)C2)nc1")
-7.21
>>> reading("Cc1ccnc(NC(=O)c2ccc(Cl)o2)c1")
-9.97
>>> reading("O=C(NCC1CC1)C1CN(C(=O)c2ccncc2)CC12CCOCC2 (centres undefined)")
3.6
>>> reading("Cc1cccc(N2CCc3ncnc(C4CC4)c3CC2)n1")
-10.3
>>> reading("O=C(NCCNc1cc(N2CCCC2)ncn1)c1cnccn1")
-7.66
>>> reading("CSCC[C@H](N)C(=O)N1CC(Oc2ccccc2C)C1")
-3.44
>>> reading("Cc1cc(C)nc(NCCC(=O)NCCn2ccc3ccccc32)n1")
5.63
>>> reading("CN1CCN(C(=O)CCc2ccccc2)Cc2cccnc21")
16.1
>>> reading("CC(=O)N1CCCN(C(=O)NCC2(c3cccs3)CCCC2)CC1")
-4.55
>>> reading("CCc1noc(C)c1C(=O)NCc1cc[nH]n1")
0.164
>>> reading("Cc1nn(CC(=O)N2CCN(Cc3cn(C)nc3C)CC2)cc1Br")
25.1
>>> reading("Cc1cccc2nc(CNCc3cccc4c3OCCCO4)cn12")
-0.513
>>> reading("CCN1CCN(c2ccc(C(=O)NC(C)c3ccncc3)cc2)CC1 (centres undefined)")
6.23
>>> reading("CC(NC(=O)NCCCn1ccnc1)c1nncn1C (centres undefined)")
-2.89
>>> reading("CN(Cc1cccnc1)C[C@@H]1OC[C@H]2CN(C(=O)C3CC3)CC[C@H]21")
-5.43
>>> reading("Cn1cnc2c1CCN(CCCOc1ccc(C#N)cc1)C2")
-10.6
>>> reading("COc1cccc(CC(=O)N2Cc3nccn3CC(CN(C)C)C2)c1 (centres undefined)")
-0.154
>>> reading("CN(C)CCN(C)C(=O)c1cnc2c(c1)nc(-c1ccccc1Cl)n2C")
-5.91
>>> reading("Cc1cc(=O)c(C(=O)N2CCN(C)c3ccccc3C2)c[nH]1")
-9.5
>>> reading("O=C(CCc1ccco1)NS(=O)(=O)N1CCOc2ccccc21")
-1.31

* * *

# assay_explanation: Human HepG2 cell viability assay in 384 well format
# Format: toxicity, cell-based
# Design: dose 125 nL, time 70.5 hour; concentration not given beside the values
# details: HepG2 cells, read-out: Inhibition
measure_name: cytotoxicity at 70.5 h

>>> reading("O=C(NCCc1nnc2n1CCC2)NCC1(c2ccccc2)CC1")
"14%"
>>> reading("CCOc1ccc(S(=O)(=O)NCc2cccnc2N(C)C)cc1")
"52.9%"
>>> reading("COc1ccc(CN2C[C@@H]3COC[C@]3(COc3cccnc3)C2)cc1")
"-7.11%"
>>> reading("Cc1ccsc1C(=O)N1CCc2ncc(Cn3cccn3)n2CC1")
"-6.33%"
>>> reading("Cc1cc(N2CCC(Cc3cccnc3)C2)ncn1 (stereo unspecified)")
"-3.49%"
>>> reading("CCCN(C)S(=O)(=O)N1CCCC1c1ccco1 (stereo unspecified)")
"1.45%"

* * *

Listed here: items and their measured cytotoxicity at 70.5 h.
# assay_explanation: Human HepG2 cell viability assay in 384 well format
# Assay type: toxicity, cell-based
# Set-up: dose 125 nL, time 70.5 hour; concentration not given beside the values
# details: HepG2 cells, read-out: Inhibition
measure_name: cytotoxicity at 70.5 h (%)

>>> reading("Cc1csc(N2CCN(C(=O)c3ccc(C)s3)CC2)n1")
5.75
>>> reading("CCOC[C@@H]1CC[C@H]2[C@H](CCN2C(=O)c2cnccn2)O1")
2.78
>>> reading("CCOCCCNC(=O)C(NC(=O)Cc1cccs1)c1ccccc1 (centres undefined)")
4.71
>>> reading("O=C(NC1(C(=O)O)CCCCC1)C1Cc2ccccc2O1 (centres undefined)")
-3.59
>>> reading("COc1cccc(CC(=O)N2CCCC2c2nc(C)c(C)c(O)n2)c1 (centres undefined)")
-2.86
>>> reading("Cc1nn(CC(=O)NCCc2ccncc2)c(=O)n1Cc1ccccc1")
1.25
>>> reading("O=C(Cn1cc(-c2ccccc2)ncc1=O)Nc1nccs1")
7.52
>>> reading("Cc1cccc(C)c1OCCNC(=O)C[S+]([O-])C1CCCC1 (centres undefined)")
-5.72
>>> reading("COC(=O)C(C)N(Cc1cc(=O)n(C)c(=O)n1C)C1CC1 (centres undefined)")
4.91
>>> reading("NC(=O)NC(=O)CCN1CCN(c2nccs2)CC1")
19.6
>>> reading("CC(NCC1(N(C)C)CCOCC1)c1ccc(S(C)(=O)=O)cc1 (centres undefined)")
-3.6
>>> reading("Cn1ncc(N2CCC(CNC3CC(c4ccccc4)C3)CC2)cc1=O (centres undefined)")
-5.35
>>> reading("FC(F)Oc1ccccc1CNCc1cc(Br)c2c(c1)OCO2")
-7.29
>>> reading("Cc1noc(C)c1CCC(=O)NC(C)c1nnc2n1CCCCC2 (centres undefined)")
-4.24
>>> reading("CCOc1ccc(C2SCC(=O)Nc3c2c(=O)[nH]n3C(CC)CC)cc1 (centres undefined)")
-6.79
>>> reading("CC(C)(CNC(=O)Nc1cccc(-c2nccs2)c1)C(N)=O")
-0.236
>>> reading("Cn1ccnc1C(=O)NC[C@@H]1OC[C@H]2CN(CC3CC3)CC[C@H]21")
-9.31
>>> reading("Cc1n[nH]c(C)c1C1COCCN1C(=O)c1ccc(Cl)o1 (centres undefined)")
18
>>> reading("Cc1nc(S(=O)(=O)NCCC(=O)NCc2ccsc2)cn1C")
-6.68
>>> reading("Cc1cc(C)nc(NC2CC(=O)N(C(C)(C)C)C2)n1 (centres undefined)")
7.77
>>> reading("Oc1cccc(CNC2CCN(CCc3ccncc3)CC2)c1")
-1.4
>>> reading("CC(Cn1ccnc1)NCc1nncn1C1CCCCC1 (centres undefined)")
-1.11
>>> reading("O=C1CCc2cc(S(=O)(=O)NC(=O)c3ccc4c(c3)COC4)ccc2N1")
-12.1
>>> reading("COc1ncc(C2(O)CCN(Cc3c(F)cccc3F)CC2)c(OC)n1")
31.4

* * *

# assay_explanation: Human HepG2 cell viability assay in 384 well format
# Type: toxicity, cell-based
# Design: dose 125 nL, time 70.5 hour; concentration not given beside the values
# details: HepG2 cells, read-out: Inhibition
Listed here: items and their measured cytotoxicity at 70.5 h.
measure_name: cytotoxicity at 70.5 h (%)

>>> reading("Cc1nnsc1C(=O)NCc1cccnc1N(C)Cc1ccccc1")
-7.67
>>> reading("COCCN1CCc2cc(C(=O)O)c(NCC3CC3)nc2CC1")
22.8
>>> reading("Cc1noc(C)c1-c1ccc(C2CCCN2C(=O)c2cccnn2)nc1 (centres undefined)")
19.1
>>> reading("O=C(c1c[nH]cn1)N1CCC(F)(F)C2(CCN(c3ccccn3)C2)C1 (centres undefined)")
-4.42
>>> reading("Cc1nc(C2CCCN2C(=O)CCCOc2ccccc2C)no1 (centres undefined)")
-8.51
>>> reading("COc1cccc2cc(CNC(=O)N3CCC(N4CCCC4)C3)oc12 (centres undefined)")
-4.76
>>> reading("CC(=O)N1CC2(CCN(C(=O)c3ccc4c(c3)OCCO4)CC2)C1")
20.2
>>> reading("CN(Cc1cnn(-c2ccccc2)n1)C1CCCN(c2cccnn2)C1 (centres undefined)")
-12.2
>>> reading("COc1ccc(OC)c(CNCCc2cc(F)cc3c2OCOC3)c1")
9.35
>>> reading("CS(=O)(=O)N1CCC(Nc2ccnc3ccc(Cl)cc23)CC1")
-3.71
>>> reading("O=c1[nH]ncc(NCCOc2ccc3c(c2)CCC3)c1Cl")
-11.7
>>> reading("CC(=O)N1CCN(C2CCCCc3ccccc32)CC1 (centres undefined)")
-1.72
>>> reading("CCOc1ncccc1NC(=O)N1CCOCC1C (centres undefined)")
-5.63
>>> reading("Cn1ncc2c1CCCC2NCc1cnc(-c2ccccc2)nc1 (centres undefined)")
-0.439
>>> reading("CCCN1CCCn2nc(CNS(=O)(=O)c3cccc(F)c3)cc2C1")
-5.1
>>> reading("CCC1=N[C@@]2(CC[C@@H]3CN(C(=O)NCC(C)C)C[C@@H]32)C(=O)N1CCOC")
-2.9
>>> reading("Cc1cnn(CC2CCN(c3cc(C(C)C)nc4ccnn34)CC2)c1")
-0.486
>>> reading("COc1nc2cc(C)ccc2cc1CN(C)Cc1cc(C)[nH]n1")
-6.96
>>> reading("CCCN(C(=O)CCS(=O)(=O)Cc1ccccc1)c1cccc(C)c1")
-4.29
>>> reading("Cn1cc(C2(C)CN(Cc3ccc(N4CCCC4)nc3)CCO2)cn1 (centres undefined)")
-10.5
>>> reading("CN(Cc1cn2c(n1)CN(CC1CCOC1)CC2)Cc1ccco1 (centres undefined)")
1.38
>>> reading("Nc1cc(N2CCCC(CO)(Cc3ccccc3F)C2)nc(N)n1 (centres undefined)")
28.8
>>> reading("Cc1nccn1CCCN1CCC(c2nccn2CC2CCC2)CC1")
-3.77
>>> reading("Cc1noc(C)c1CN(C)C(=O)CCn1c(=O)n(C)c2ccccc21")
-12.2
